- Tested on: K4 kissing-loop RNA reporter;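 also: bound reporter read as fluorescence of individual clusters on recovered sequencing chips by microscopy, with normalized cluster intensities fitted with a binding model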
- assay-details: apparent KD of K4 kissing-loop reporter; higher = weaker reporter binding
- run-conditions: Eterna round: R107; input ligand: theophylline 20 uM
apparent KD of K4 kissing-loop reporter values by entry
The figure you give is taken to be in nM; do not add the unit.

sequence-content: AGAGUUAAUUAGUCAUUUUUCACAUUAAGUCAGGAUAUCGUAUUUUCGAGAAGGGACACAUGCUAGUGAUGUUAGCUAUUUCUCA [JR_Nu_ExcFMNA_Sub021]
test-value: 105

Ask: So what's the measured apparent KD of K4 kissing-loop reporter for this one? UAAGGGUUAUGUCCUCGGUGCGAAGAGCUCCGAGGACCGGUACGGCCGCCACUCGGAAGUUCUGAGUGAGGGAGUGAUGUUCCCU [Skye_Ex_TA]
Reply: 315

Ask: So what's the measured apparent KD of K4 kissing-loop reporter for this one? GUAGACAGACUGCAAGCCUAGUCUACAGACUAGGAUAUCAGGAAACUGAGAAGGAGUCUAGUUGCAGUGAUGUUGCAAGAAUAAU [KL-SSFMN-A24]
Reply: 140

Ask: So what's the measured apparent KD of K4 kissing-loop reporter for this one? GCCCGGUGAAUCCGCCAAGAUAGACACCGUCGAGGACCGGUACGGCCGCCACUCGAGUACGAGUGAUGUUCGUACGCGGUGUCGA [Onedzate]
Reply: 431

Ask: So what's the measured apparent KD of K4 kissing-loop reporter for this one? GGAGAGCGAAAAGGAUAUGCGUCCGUCAAAAUUAUGUAGCGCGGAAAAUGGUAGUGAUGUUGCAAAGCAGAAGGUUUCAGAUGUA [theeternabot_sameState_KL_FMN_B_43]
Reply: 519

Ask: So what's the measured apparent KD of K4 kissing-loop reporter for this one? AAACGUUGGUGCGAUACCAGCUGCUCGGAAACGAGCUUGCUGGAGUGAUGUUCCAGGAAAAGCCCUUGGCAGCGCACCGACGAAA [MAT - Same State Theophlline B - Mod of Eli - D27]
Reply: 738

Ask: So what's the measured apparent KD of K4 kissing-loop reporter for this one? ACGCUAGCUACCGAAAGGUAGCUAGCGAGUGAGGAUAUGUGGAAACACAGAAGGCACAGCGCAGUGAUGUUGUGCGGCGGAAGCG [whbob_SS_FMNA__2th168]
Reply: 664
